# SYSTEM_TESTED: Kappa-type opioid receptor (Homo sapiens) (UniProt P41145)
# Sequence (P41145 whole entry): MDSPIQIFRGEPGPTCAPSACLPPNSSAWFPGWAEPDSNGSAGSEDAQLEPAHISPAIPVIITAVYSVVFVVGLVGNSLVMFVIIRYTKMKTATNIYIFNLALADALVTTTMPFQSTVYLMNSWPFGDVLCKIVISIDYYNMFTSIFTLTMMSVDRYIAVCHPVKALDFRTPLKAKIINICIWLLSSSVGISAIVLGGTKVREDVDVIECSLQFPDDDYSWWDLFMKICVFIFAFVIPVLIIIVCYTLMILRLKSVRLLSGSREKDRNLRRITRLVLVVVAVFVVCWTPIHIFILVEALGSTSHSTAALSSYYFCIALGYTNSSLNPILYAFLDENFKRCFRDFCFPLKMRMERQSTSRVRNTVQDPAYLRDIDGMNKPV
# METHOD: Inhibition of U69,593 stimulated [35S]GTP-gamma-S binding to cloned human kappa opioid receptor expressed in CHO cells
# Format: functional, cell-based
OUTCOME_MEASURE: Ke (nM)

The following molecules have reported results that may help.
CC1CCN(CCC(=O)N[C@H]2CC3CC(c4cccc(O)c4)(C2)C(C)CN3CCCc2ccccc2)CC1 (some centres undefined) | 0.47
CC1CN(CCCc2ccccc2)C2C[C@H](NC(=O)CCN3CCCCC3)CC1(c1cccc(O)c1)C2 (some centres undefined) | 0.24

1 = CC1CN(CCCc2ccco2)C2C[C@H](NC(=O)CCN3CCc4ccccc4C3)CC1(c1cccc(O)c1)C2 (some centres undefined)
2 = COc1ccc2c(c1)CCN(CCC(=O)N[C@H]1CC3CC(c4cccc(O)c4)(C1)C(C)CN3CCCc1ccccc1)C2 (some centres undefined)
Exercise: Please indicate which item has the smaller measured Ke: 1 versus 2 Write down the label of the entry you select.
Key: 2
(2: 0.12 nM, 1: 0.32 nM)

====

# SYSTEM_TESTED: Mu-type opioid receptor (Homo sapiens)
# METHOD: Inhibition of DAMGO stimulated [35S]GTP-gamma-S binding to cloned human mu opioid receptor expressed in CHO cells
# Format: functional, cell-based
OUTCOME_MEASURE: Ke (nM)

The following molecules have reported results that may help.
CCCCCCN1CC(C)C2(c3cccc(O)c3)CC1C[C@H](NC(=O)CCN1CCc3ccccc3C1)C2 (stereo partly drawn) | 103
CC1CN(CCCc2ccccc2)C2C[C@H](NC(=O)CCN3CCc4cc(O)ccc4C3)CC1(c1cccc(O)c1)C2 (stereo partly drawn) | 26
CC1CN(CCCc2ccccc2)C2C[C@H](NC(=O)CCN3CCc4ccccc4C3)CC1(c1cccc(O)c1)C2 (stereo partly drawn) | 48
CC1CN(CCCc2ccccc2)C2C[C@H](NC(=O)CCN3CCCCC3)CC1(c1cccc(O)c1)C2 (stereo partly drawn) | 42
CC1CN(CCCc2ccccc2)C2C[C@H](NC(=O)CCN3CCN(C)CC3)CC1(c1cccc(O)c1)C2 (stereo partly drawn) | 82
Cc1ccccc1CCCN1CC(C)C2(c3cccc(O)c3)CC1C[C@H](NC(=O)CCN1CCc3ccccc3C1)C2 (stereo partly drawn) | 41
CC1CN(CCCc2ccccc2)C2C[C@H](NC(=O)CCN3CCc4c(O)cccc4C3)CC1(c1cccc(O)c1)C2 (stereo partly drawn) | 4.6
CC1CN(CCCc2ccccc2)C2C[C@H](NC(=O)CCN3CCOCC3)CC1(c1cccc(O)c1)C2 (stereo partly drawn) | 259

1 = CC1CN(CCCc2cccs2)C2C[C@H](NC(=O)CCN3CCc4ccccc4C3)CC1(c1cccc(O)c1)C2 (stereo partly drawn)
2 = CC1CN(CCCc2ccsc2)C2C[C@H](NC(=O)CCN3CCc4ccccc4C3)CC1(c1cccc(O)c1)C2 (stereo partly drawn)
Exercise: Between these two entries, 1 and 2 , state which has the higher Ke. Write down the label of the entry you select.
Key: 2
(2: 52 nM, 1: 25 nM)

P = COc1ccc2c(c1)CCN(CCC(=O)N[C@H]1CC3CC(c4cccc(O)c4)(C1)C(C)CN3CCCc1ccccc1)C2 (stereo partly drawn)
Q = COc1ccc2c(c1)CN(CCC(=O)N[C@H]1CC3CC(c4cccc(O)c4)(C1)C(C)CN3CCCc1ccccc1)CC2 (stereo partly drawn)
Exercise: Between these two entries, P and Q , state which has the higher Ke. Write down the label of the entry you select.
Key: P
(P: 261 nM, Q: 28 nM)

Values from ChEMBL document CHEMBL1138153
